Origin of the recorded values: patent US20240360151A1

# Target Or Test System: NLRP3 inflammasome (Homo sapiens)
# Construct: endogenous in cells; host or cells: THP-1 monocytic cells
# Sequence (Q96P20 whole entry): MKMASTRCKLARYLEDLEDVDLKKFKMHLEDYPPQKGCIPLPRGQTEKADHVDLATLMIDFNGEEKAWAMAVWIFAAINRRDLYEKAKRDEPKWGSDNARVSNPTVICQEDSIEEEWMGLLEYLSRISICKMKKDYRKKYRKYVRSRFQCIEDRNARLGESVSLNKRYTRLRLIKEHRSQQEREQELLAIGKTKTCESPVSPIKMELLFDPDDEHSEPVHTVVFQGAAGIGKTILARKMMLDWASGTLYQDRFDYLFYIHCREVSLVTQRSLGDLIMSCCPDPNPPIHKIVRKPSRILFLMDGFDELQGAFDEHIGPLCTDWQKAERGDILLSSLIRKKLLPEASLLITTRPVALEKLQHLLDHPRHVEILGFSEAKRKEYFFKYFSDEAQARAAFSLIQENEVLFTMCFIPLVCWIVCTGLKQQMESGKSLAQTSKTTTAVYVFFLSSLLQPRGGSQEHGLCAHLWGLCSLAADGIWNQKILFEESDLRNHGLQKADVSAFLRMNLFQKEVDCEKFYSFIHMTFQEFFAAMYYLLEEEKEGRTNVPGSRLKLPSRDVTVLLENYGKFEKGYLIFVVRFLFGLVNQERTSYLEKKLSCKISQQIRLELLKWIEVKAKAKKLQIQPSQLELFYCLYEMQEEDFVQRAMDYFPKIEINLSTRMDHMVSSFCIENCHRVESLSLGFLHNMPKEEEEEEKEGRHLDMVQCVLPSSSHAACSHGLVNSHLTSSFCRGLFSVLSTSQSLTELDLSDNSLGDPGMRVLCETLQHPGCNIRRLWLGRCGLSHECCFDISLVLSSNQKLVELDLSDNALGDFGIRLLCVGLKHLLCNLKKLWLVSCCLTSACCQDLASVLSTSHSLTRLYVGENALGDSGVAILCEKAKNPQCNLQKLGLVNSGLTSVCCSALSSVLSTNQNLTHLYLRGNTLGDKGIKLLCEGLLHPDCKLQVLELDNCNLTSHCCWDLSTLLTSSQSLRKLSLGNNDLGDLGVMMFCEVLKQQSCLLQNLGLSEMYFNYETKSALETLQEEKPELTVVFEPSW
# Protocol Details: IL-1β secretion assay (NLRP3 IC50) in LPS-primed, nigericin-activated THP-1 cells, HTRF
# Type: cell-based
# Details: monocytic THP-1 cells; LPS 10 ng/mL 3 h priming, then compound + nigericin 10 μM 2 h; relative IC50, 10 concentrations, geometric mean
pIC50: −log10 of the molar value. Where a name gives a salt, the structure may show the parent alone.
pIC50 vs 7: at or above is label 1, below is label 0.

# Molecule, Class
data = [
    ("Cc1ccc(F)c(O)c1-c1ccc(N2CCO[C@@H]3CCN(C)C[C@@H]32)nn1 [Example 353]", "label 1"),
    ("Cc1cc(C)c(-c2ccc(N3CCc4ccc(O)cc43)nn2)c(O)c1 [Example 254]", "label 0"),
    ("Cc1cc(C(F)(F)F)cc(O)c1-c1ccc(N2CCO[C@H](CN(C)C)C2)nn1 [Example 27]", "label 0"),
    ("OC[C@@H]1CN(c2cc(C(F)F)c(-c3ccc(Cl)cc3O)nn2)CCO1 [Example 145]", "label 1"),
    ("Cc1cc(C)c(-c2ccc(N3CC[C@]4(CN(C)CCO4)C3)nn2)c(O)c1 [Example 445]", "label 0"),
    ("Cc1cc(C)c(-c2ccc(N3CCO[C@@H](C(=O)N(C)C)C3)nn2)c(O)c1 [Example 184]", "label 0"),
    ("Cc1cc(C)c(-c2ccc(N3CCO[C@H]4CCN(C)C[C@H]43)nn2)c(O)c1 [Example 310]", "label 0"),
    ("CN1CC[C@H]2OCCN(c3ccc(-c4c(O)cccc4C(F)(F)F)nn3)[C@H]2C1 [Example 402]", "label 1"),
    ("CCN1C[C@@H]2OCCN(c3ccc(-c4c(C)cc(C(F)(F)F)cc4O)nn3)[C@@H]2C1 (racemic) [Example 361]", "label 1"),
    ("Cc1cc(C)c(-c2cc(C)c(N3CCO[C@@H]4CCN(C)C[C@@H]43)nn2)c(O)c1 [Example 434]", "label 1"),
    ("Cc1cc(C(F)(F)F)cc(O)c1-c1ccc(N2C[C@@H](CO)O[C@H](CO)C2)nn1 [Example 199]", "label 1"),
    ("CC(=O)NC[C@H]1CCCN(c2ccc(-c3c(O)cc(Cl)cc3Cl)nn2)C1 [Example 57]", "label 0"),
    ("Cc1cc(C(F)(F)F)cc(O)c1-c1ccc(N2CC(CO)C2)nn1 [Example 30]", "label 0"),
    ("Cc1cc(C(F)(F)F)cc(O)c1-c1ccc(N2CC[C@@H]3NCC[C@@H]32)nn1 (racemic) [Example 346, hydrochloride]", "label 0"),
    ("CCN1CC[C@H]2CCN(c3ccc(-c4c(C)cc(C(F)(F)F)cc4O)nn3)[C@H]2C1 (racemic) [Example 378]", "label 1"),
    ("Cc1cc(C)c(-c2ccc(N3CCOCC34CCCN(C)C4)nn2)c(O)c1 (centres unmarked) [Example 449]", "label 0"),
    ("CC(=O)NC[C@@H]1CN(c2ccc(-c3c(C)cc(C)cc3O)nn2)CCO1 [Example 106]", "label 0"),
    ("Cc1ccc(O)c(-c2ccc(N3CCO[C@H](CO)C3)nn2)c1C [Example 191]", "label 0"),
    ("Cc1ccc(O)c(-c2ccc(N3CCO[C@H](CO)C3)nn2)c1 [Example 102]", "label 0"),
    ("CNCC[C@H]1CN(c2ccc(-c3c(C)cc(C(F)(F)F)cc3O)nn2)CCO1 (single isomer, unassigned) [Example 332]", "label 0"),
    ("Cc1cc(C)c(-c2ccc(N3C[C@@H](CO)CC3=O)nn2)c(O)c1 (single isomer, unassigned) [Example 138]", "label 0"),
    ("Cc1cc(C)c(-c2ccc(N3CCO[C@H]4CCN(C5CCC5)C[C@H]43)nn2)c(O)c1 (single isomer, unassigned) [Example 10]", "label 0"),
    ("Cc1cc(C(F)(F)F)cc(O)c1-c1ccc(N2CCN(C)CC2)nn1 [Example 29]", "label 0"),
    ("Cc1cc(C(F)(F)F)cc(O)c1-c1ccc(N2CCO[C@H]3CCN(C)C[C@@H]32)nn1 (single isomer, unassigned) [Example 343]", "label 1"),
]
